tested target: METTL3/METTL14 (Homo sapiens, UniProt Q86U44)
Construct: made in house; host or cells: Sf9 insect cells (baculovirus)
Sequence (Q86U44 whole entry): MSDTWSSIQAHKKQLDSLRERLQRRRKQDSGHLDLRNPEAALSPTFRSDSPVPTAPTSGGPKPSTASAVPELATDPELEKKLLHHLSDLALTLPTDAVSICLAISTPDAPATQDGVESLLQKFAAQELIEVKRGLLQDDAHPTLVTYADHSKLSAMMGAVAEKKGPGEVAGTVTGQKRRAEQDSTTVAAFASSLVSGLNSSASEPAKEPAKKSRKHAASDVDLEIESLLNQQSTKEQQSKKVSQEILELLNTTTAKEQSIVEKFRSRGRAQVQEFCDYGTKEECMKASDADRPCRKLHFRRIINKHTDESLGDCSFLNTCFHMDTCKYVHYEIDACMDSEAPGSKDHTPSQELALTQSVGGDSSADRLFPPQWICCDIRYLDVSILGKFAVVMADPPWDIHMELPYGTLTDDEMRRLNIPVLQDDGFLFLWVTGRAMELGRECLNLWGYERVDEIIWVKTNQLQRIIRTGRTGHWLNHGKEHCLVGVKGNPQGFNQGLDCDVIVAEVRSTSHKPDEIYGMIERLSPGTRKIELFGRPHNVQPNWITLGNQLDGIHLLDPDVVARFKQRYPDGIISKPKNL
Sequence (Q9HCE5 whole entry partner): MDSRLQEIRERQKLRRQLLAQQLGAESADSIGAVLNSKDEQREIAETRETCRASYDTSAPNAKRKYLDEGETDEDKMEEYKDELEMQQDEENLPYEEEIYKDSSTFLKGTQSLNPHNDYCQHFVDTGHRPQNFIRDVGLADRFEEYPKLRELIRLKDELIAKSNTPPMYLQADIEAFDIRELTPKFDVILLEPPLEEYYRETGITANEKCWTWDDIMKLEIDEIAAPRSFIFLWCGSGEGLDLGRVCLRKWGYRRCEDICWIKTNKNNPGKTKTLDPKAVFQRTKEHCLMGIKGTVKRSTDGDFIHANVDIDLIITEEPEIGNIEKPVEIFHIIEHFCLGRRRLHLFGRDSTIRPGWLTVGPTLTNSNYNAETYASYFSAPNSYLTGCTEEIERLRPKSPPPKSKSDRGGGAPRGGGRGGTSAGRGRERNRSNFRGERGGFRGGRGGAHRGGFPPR
experiment summary: METTL3 enzymatic inhibition assay by homogeneous time-resolved fluorescence (HTRF)
Assay type: biochemical
measurement parameters: HTRF assay, racemic mixture; read-out: IC50
parameter measured: IC50 (µM)
Kindly provide the numeric value in µM only, without the unit symbol.

Log: METTL3/METTL14 (Homo sapiens, UniProt Q86U44), compound CNc1cc(N2CCCC(O)(CNC(=O)c3ccc(CN4CCNCC4)cc3)C2)ncn1 (stereo not drawn) , IC50 = 179

Log: METTL3/METTL14 (Homo sapiens, UniProt Q86U44), compound CC1(C)CCN(Cc2ccc(C(=O)NCC3(O)CCCN(c4cc(NCc5ccccc5)ncn4)C3)cn2)CC1 (stereo not drawn) , IC50 = 10

Log: METTL3/METTL14 (Homo sapiens, UniProt Q86U44), compound CC(Nc1cc(N2CCCC(O)(CNC(=O)c3ccc(CN4CCC(C)(C)CC4)cc3)C2)ncn1)c1ccccc1 (stereo not drawn) , IC50 = 12

* * *

tested target: METTL3/METTL14 (Homo sapiens, UniProt Q86U44)
Construct: made in house; host or cells: Sf9 insect cells (baculovirus)
experiment summary: METTL3 enzymatic inhibition assay by homogeneous time-resolved fluorescence (HTRF)
Format: biochemical
measurement parameters: HTRF assay, racemic mixture; read-out: IC50
parameter measured: IC50 (µM)
Kindly provide the numeric value in µM only, without the unit symbol.

molecule O=C(NCC1(O)CCCN(c2cc(NCc3ccccc3)ncn2)C1)c1ccc(CN2CCCC3CCCCC32)cc1 (centres unmarked) , IC50 observed: 8.4

molecule CC(C)C1N(Cc2ccc3c(NCC4(O)CCCN(c5cc(NCc6ccccc6)ncn5)C4)cccc3c2)CC12CCC2 (centres unmarked) , IC50 observed: 0.054

molecule CC1(F)CC12CCN(Cc1ccc(C(=O)NCC3(O)CCCN(c4cc(NCc5ccccc5)ncn4)C3)cc1)CC2 (centres unmarked) , IC50 observed: 23

molecule "CC1(C)CCN(Cc2ccc(N3CC4(CCN(c5cc(NCc6ccccc6)ncn5)CC4)OCC3=O)cn2)CC1" , IC50 observed: 5.1

molecule CNc1cc(N2CCCC(O)(CNC(=O)c3ccc(CN4CCC(C)(C)CC4)cc3)C2)ncn1 (centres unmarked) , IC50 observed: 8.2

molecule CC1(C)CCN(Cc2ccc(C(=O)NCC3(O)CCCN(c4cc(NC(C)(C)c5ccccc5)ncn4)C3)cc2)CC1 (centres unmarked) , IC50 observed: 31

molecule CCC1(C)CCN(Cc2ccc(C(=O)NCC3(O)CCCN(c4cc(NCc5ccccc5)ncn4)C3)cc2)CC1 (centres unmarked) , IC50 observed: 4.7

molecule CC1(C)CCN(Cc2ccc(C(=O)NCC3(O)CCCN(c4cc(NCc5ccsc5)ncn4)C3)cc2)CC1 (centres unmarked) , IC50 observed: 1.8

Cited source for all entries: paper PMC10436262
